Molecular target: Angiopoietin-1 receptor (Homo sapiens)
Assay: Inhibition of recombinant Tie2 expressed in baculovirus-Sf21 system
pIC50: −log10 of the molar value.
pIC50 of 5 or higher: 1.0. Under 5: 0.0.

[
  {
    "molecule": "Cn1cnc(/C=C/c2ccnc(N)n2)c1-c1ccccc1",
    "category": 0.0
  },
  {
    "molecule": "Cc1nc2sccn2c1/C=C/c1ccnc(N)n1",
    "category": 0.0
  },
  {
    "molecule": "CC(Nc1nccc(/C=C/c2c(-c3ccccc3)nc3sccn23)n1)c1ccccc1 (stereo not given)",
    "category": 0.0
  },
  {
    "molecule": "Cn1cnc(-c2ccccc2)c1NC(=O)c1ccnc(N)n1",
    "category": 0.0
  },
  {
    "molecule": "Nc1nccc(/C=C/c2ccsc2-c2ccccc2)n1",
    "category": 0.0
  },
  {
    "molecule": "Nc1nccc(/C=C/c2c(-c3ccccc3)nc3sccn23)n1",
    "category": 1.0
  },
  {
    "molecule": "Nc1nccc(/C=C/c2c(-c3ccccc3)ncn2Cc2ccccc2)n1",
    "category": 1.0
  },
  {
    "molecule": "Nc1nccc(/C=C/c2c(-c3ccccc3)ncn2CC(=O)O)n1",
    "category": 0.0
  },
  {
    "molecule": "Cn1cnc(-c2ccccc2)c1NCCc1ccnc(N)n1",
    "category": 0.0
  },
  {
    "molecule": "Nc1nccc(/C=C/c2[nH]ncc2-c2ccccc2)n1",
    "category": 0.0
  },
  {
    "molecule": "Cn1cnc(-c2ccccc2)c1Nc1ccnc(N)n1",
    "category": 0.0
  },
  {
    "molecule": "Nc1cc(/C=C/c2c(-c3ccccc3)nc3sccn23)ncn1",
    "category": 1.0
  },
  {
    "molecule": "Nc1nccc(/C=C/c2sccc2-c2ccccc2)n1",
    "category": 0.0
  },
  {
    "molecule": "Cn1cnc(-c2ccccc2)c1CNc1ccnc(N)n1",
    "category": 0.0
  },
  {
    "molecule": "C(=C\\c1c(-c2ccccc2)nc2sccn12)/c1ccnc(Nc2ccccc2)n1",
    "category": 0.0
  },
  {
    "molecule": "Nc1nccc(/C=C/c2c(-c3ccccc3)nc3ccccn23)n1",
    "category": 1.0
  },
  {
    "molecule": "Nc1nccc(/C=C/c2c(-c3ccccc3)ncn2CCN2CCCC2)n1",
    "category": 0.0
  },
  {
    "molecule": "Cn1cnc(-c2ccccc2)c1C#Cc1ccnc(N)n1",
    "category": 1.0
  },
  {
    "molecule": "CNc1nccc(/C=C/c2c(-c3ccccc3)nc3sccn23)n1",
    "category": 0.0
  },
  {
    "molecule": "C(=C\\c1c(-c2ccccc2)nc2sccn12)/c1ccncn1",
    "category": 0.0
  },
  {
    "molecule": "Nc1ccnc(/C=C/c2c(-c3ccccc3)nc3sccn23)n1",
    "category": 0.0
  },
  {
    "molecule": "CC(C)(C)C(=O)Nc1nccc(/C=C/c2c(-c3ccccc3)nc3sccn23)n1",
    "category": 0.0
  },
  {
    "molecule": "Cn1cnc(-c2ccccc2)c1/C=C/c1ccnc(N)n1",
    "category": 1.0
  },
  {
    "molecule": "Cn1cnc(-c2ccccc2)c1C(=O)Nc1ccnc(N)n1",
    "category": 0.0
  },
  {
    "molecule": "Nc1nccc(/C=C/c2c(-c3ccccc3)nc3n2CCS3)n1",
    "category": 1.0
  },
  {
    "molecule": "Nc1nccc(/C=C/c2c(Cl)nc3sccn23)n1",
    "category": 0.0
  },
  {
    "molecule": "Cn1cnc(-c2ccccc2)c1C1CC1c1ccnc(N)n1 (stereo not given)",
    "category": 0.0
  }
]

###

Entries and their measured pIC50 follow.
Biological target: UniProt:P17948
Sequence (P17948 whole entry): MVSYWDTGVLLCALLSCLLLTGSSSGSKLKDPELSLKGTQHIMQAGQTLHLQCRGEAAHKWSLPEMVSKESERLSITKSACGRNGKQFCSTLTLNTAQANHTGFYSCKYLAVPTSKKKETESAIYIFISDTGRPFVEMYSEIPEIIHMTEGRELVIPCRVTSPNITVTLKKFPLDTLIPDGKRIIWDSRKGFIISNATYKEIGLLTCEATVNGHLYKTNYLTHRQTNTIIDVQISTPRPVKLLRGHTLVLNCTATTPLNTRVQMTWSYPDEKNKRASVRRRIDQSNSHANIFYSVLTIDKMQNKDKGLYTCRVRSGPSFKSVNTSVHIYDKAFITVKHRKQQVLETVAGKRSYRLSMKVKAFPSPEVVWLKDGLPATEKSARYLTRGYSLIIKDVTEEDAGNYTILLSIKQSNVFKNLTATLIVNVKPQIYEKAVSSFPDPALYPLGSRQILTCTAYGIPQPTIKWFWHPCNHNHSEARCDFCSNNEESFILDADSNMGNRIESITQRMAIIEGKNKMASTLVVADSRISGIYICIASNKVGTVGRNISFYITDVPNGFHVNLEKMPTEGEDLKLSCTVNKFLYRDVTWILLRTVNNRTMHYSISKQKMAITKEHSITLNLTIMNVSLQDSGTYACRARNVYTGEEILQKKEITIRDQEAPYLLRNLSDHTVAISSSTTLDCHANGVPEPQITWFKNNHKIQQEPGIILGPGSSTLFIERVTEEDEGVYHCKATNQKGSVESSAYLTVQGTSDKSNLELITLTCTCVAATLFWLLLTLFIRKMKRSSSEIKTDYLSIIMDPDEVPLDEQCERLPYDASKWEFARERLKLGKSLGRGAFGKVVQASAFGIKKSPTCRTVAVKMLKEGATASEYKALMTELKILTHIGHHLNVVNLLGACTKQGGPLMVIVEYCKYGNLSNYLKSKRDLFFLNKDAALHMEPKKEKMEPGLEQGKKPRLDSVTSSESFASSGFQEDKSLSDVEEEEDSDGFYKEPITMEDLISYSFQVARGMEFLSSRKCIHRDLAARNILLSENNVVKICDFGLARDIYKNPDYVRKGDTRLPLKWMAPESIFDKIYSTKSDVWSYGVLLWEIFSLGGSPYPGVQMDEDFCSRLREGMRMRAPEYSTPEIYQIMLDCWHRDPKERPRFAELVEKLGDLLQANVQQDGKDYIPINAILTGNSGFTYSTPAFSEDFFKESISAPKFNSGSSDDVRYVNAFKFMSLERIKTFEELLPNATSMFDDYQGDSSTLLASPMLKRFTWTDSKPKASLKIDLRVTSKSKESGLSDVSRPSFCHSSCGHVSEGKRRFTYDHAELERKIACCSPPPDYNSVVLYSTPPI
Assay: Inhibition of recombinant Flt1 expressed in baculovirus-Sf21 system
pIC50: −log10 of the molar value.

[
  {
    "compound": "CC(Nc1nccc(/C=C/c2c(-c3ccccc3)nc3sccn23)n1)c1ccccc1 (stereo not drawn)",
    "system_name": "UniProt:P17948",
    "pIC50": "< 4.00"
  },
  {
    "compound": "C(=C\\c1c(-c2ccccc2)nc2sccn12)/c1ccnc(Nc2ccccc2)n1",
    "system_name": "UniProt:P17948",
    "pIC50": "< 4.00"
  },
  {
    "compound": "Cn1cnc(-c2ccccc2)c1NC(=O)c1ccnc(N)n1",
    "system_name": "UniProt:P17948",
    "pIC50": "< 4.00"
  }
]

###

Target: Angiopoietin-1 receptor (Homo sapiens, UniProt Q02763)
Sequence (Q02763 whole entry): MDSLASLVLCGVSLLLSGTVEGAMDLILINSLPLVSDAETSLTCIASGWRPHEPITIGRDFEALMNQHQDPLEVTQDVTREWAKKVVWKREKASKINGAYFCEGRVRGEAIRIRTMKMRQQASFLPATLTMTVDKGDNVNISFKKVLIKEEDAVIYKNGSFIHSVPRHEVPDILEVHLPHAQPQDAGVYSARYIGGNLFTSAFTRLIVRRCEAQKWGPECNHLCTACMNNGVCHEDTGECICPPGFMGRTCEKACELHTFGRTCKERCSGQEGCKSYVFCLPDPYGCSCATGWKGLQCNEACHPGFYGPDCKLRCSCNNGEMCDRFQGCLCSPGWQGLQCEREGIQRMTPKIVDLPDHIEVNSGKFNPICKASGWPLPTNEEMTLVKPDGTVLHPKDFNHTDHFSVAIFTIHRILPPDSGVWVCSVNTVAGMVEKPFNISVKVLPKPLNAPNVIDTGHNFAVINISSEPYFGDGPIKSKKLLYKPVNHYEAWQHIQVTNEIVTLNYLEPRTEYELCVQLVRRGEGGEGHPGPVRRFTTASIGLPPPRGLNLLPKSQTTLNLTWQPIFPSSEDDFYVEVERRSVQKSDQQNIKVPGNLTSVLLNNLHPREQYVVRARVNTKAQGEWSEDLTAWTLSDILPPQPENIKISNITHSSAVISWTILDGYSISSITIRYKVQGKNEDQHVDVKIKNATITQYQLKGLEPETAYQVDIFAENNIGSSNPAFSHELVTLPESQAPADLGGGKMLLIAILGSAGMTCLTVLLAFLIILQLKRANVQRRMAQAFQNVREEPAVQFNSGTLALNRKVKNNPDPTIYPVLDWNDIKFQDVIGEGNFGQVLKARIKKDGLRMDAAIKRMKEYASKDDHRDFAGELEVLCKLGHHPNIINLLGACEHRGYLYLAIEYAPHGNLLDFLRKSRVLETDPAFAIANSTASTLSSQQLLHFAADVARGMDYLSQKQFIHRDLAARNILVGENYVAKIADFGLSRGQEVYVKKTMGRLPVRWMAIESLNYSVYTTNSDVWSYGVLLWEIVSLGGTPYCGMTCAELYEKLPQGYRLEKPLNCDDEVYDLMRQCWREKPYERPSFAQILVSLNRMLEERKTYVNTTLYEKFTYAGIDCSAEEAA
Assay: Inhibition of recombinant Tie2 expressed in baculovirus-Sf21 system
pIC50: −log10 of the molar value.
Entries and their measured pIC50 follow.

[
  {
    "structure_string": "Nc1nccc(/C=C/c2c(-c3ccc(F)cc3)nc3sccn23)n1",
    "pIC50": 4.89
  },
  {
    "structure_string": "Nc1nccc(/C=C/c2[nH]cnc2-c2ccccc2)n1",
    "pIC50": 5.08
  },
  {
    "structure_string": "CC(=O)Nc1nccc(/C=C/c2c(-c3ccccc3)nc3sccn23)n1",
    "pIC50": 4.96
  }
]
